Data provenance: the supplement of paper PMC10065799

# TARGET_OR_TEST_SYSTEM: Fes (UniProt P07332)
# Sequence (P07332 whole entry, looked up): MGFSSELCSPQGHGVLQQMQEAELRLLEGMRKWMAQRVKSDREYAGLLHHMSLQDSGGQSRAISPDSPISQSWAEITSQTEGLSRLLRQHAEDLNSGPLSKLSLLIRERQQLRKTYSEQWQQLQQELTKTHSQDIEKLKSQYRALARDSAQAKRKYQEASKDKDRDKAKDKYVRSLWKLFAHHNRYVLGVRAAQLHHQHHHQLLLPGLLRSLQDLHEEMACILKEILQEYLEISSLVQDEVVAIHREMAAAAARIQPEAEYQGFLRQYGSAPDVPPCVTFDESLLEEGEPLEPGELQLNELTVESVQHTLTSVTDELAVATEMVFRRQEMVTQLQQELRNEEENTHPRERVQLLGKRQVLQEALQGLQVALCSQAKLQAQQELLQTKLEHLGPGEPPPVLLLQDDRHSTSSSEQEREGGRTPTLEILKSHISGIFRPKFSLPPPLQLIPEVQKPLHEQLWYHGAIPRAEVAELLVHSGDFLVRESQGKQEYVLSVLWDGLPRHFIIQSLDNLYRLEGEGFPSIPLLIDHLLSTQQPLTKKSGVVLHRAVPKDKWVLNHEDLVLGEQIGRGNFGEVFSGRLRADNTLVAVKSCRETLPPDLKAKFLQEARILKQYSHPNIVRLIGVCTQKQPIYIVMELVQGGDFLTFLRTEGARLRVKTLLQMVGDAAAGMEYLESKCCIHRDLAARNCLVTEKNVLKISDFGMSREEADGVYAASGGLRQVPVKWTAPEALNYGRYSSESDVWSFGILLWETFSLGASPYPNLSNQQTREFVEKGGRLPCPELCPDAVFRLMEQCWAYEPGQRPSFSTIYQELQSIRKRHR
# TEST_DETAILS: phosphorylation enrichment, bacterial display (enrichment ratio); higher = better substrate or ligand; peptides without Tyr show the background;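 note: 11-residue human phosphosite peptides and single-mutation variants displayed on the E. coli surface, counted by deep sequencing, each peptide's frequency after selection divided by its frequency in the unselected input library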;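 note: frequency after pTyr selection over input frequency; kinase dosed for 20-30% of maximal phosphorylation in three min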
Give measured phosphorylation enrichment for each item. Keep answers brief.
Form field (numeric): enter value without unit.

Fill blank: measured phosphorylation enrichment of the sequence AIGCEYSEINI [SIGLEC12_Y588_Y586C] is ____.
1.27

GET /values?readout=phosphorylation enrichment&item= ALDRPYTSKHS [NANS_Y71_E68D]
0.638

For the sequence DGMADCSDPSY [CDC5L_Y459_Y459C] , what phosphorylation enrichment is on record?
1.18

Entry under review: ATGGFYSFGGG [KRT24_Y120_YF] . Reported phosphorylation enrichment?
0.953

Recorded phosphorylation enrichment for ESPGLCGFLNV [BCR_Y910_Y910C] , please?
1.38

phosphorylation enrichment lookup needed for NLFIEYPTGSG [IRF2BPL_Y423_K418N] , thanks.
1.02

Tell me the measured phosphorylation enrichment of IRGNMYFENSF [EGFR_Y112_YF] , please.
1.07

Would you mind telling me what phosphorylation enrichment value was observed for INNIDYYKNTT [FGFR2_Y656_K659N] ?
0.708

Look up phosphorylation enrichment for this sequence: SVDRDYVLKSA [HTATIP2_Y111_R106S]
0.755

Find the recorded phosphorylation enrichment belonging to KDYETYQPFQN [CTNND2_Y1157] and report it.
1.17

Name the reported phosphorylation enrichment value associated with the sequence KYVVVYFRETD [IL17RB_Y447_I451T]
1.34

Bench note: what phosphorylation enrichment did CSRRFYQLTKL [AR_Y858] show?
0.718

Please give the measured phosphorylation enrichment for this sequence: KEEEDYKEENN [BMS1_Y651]
1.06

GET /values?readout=phosphorylation enrichment&item= SLMGCYNLTFM [HS6ST3_Y323_V320M]
1.63

Reported phosphorylation enrichment, sequence LQRVQCDLQKA [DSP_Y1512_Y1512C] : ____
1.16

Query (sequence): DYSLKYPTDIP [APC_Y1183_A1184P] ; field requested: phosphorylation enrichment
0.844

Data request, read-out phosphorylation enrichment, for HEKKVYSFCGT [RPS6KA3_Y226_A225V]
1.03

What does the record list as phosphorylation enrichment for CTTIHYNYMSN [TP53_Y234_C238S] ?
0.844

Look up phosphorylation enrichment: LERFIYNRQEF [HLA-DPB1_Y59_E62Q_YF]
0.87

Need phosphorylation enrichment, item NTADYYDLYGG [PTPN11_Y63_G60A]
1.47

Which value of phosphorylation enrichment has been reported for QHNPEYVQQAS [LRRC7_Y1058] in the records?
0.867

I am curious: what phosphorylation enrichment value has been reported for REAAAYLHGRL [AGXT_Y297] ?
1.03

Form field: reported phosphorylation enrichment of SDVLSYGVTMW [ZAP70_Y525_W523L]
1.03

I have this sequence here, GHLYANDWISI [BEST1_Y227_Y227N] , and I need its recorded phosphorylation enrichment.
0.871

For the sequence shown here, DFFDLYGGEKF [PTPN11_Y66_YF] , give the reported phosphorylation enrichment.
1

Look at this sequence and give its reported phosphorylation enrichment. AGLVQYYMEHH [PTPN11_Y80_E76G]
0.939

Form field: reported phosphorylation enrichment of CTAIHYNFMCN [TP53_Y234_T231A_YF]
0.909

What does the data say about its phosphorylation enrichment? Entry: PMDTFYDSTRG [DYNC2H1_Y2231_YF]
1.05

Requested read-out: phosphorylation enrichment. Entry: FSKQIYKGMVA [PCDH15_Y931_R929Q]
0.479

# input sequence: GMSQAYSFSQR [DES_Y5_S7F] ; wanted: its phosphorylation enrichment
0.755

Field request: phosphorylation enrichment | item: IKAGAYDFPSP [CAMK2A_Y230]
0.708

Record request: phosphorylation enrichment value, item HKGASYAFRLS [PTPRD_Y891_V892A]
0.962

Entry SRDPFYEMLAA [CYTH1_Y382] has what phosphorylation enrichment?
1.26

Field request: phosphorylation enrichment | item: VYAADYYKLLG [ROR2_Y645]
0.944

Entry SRNKPYISWPS [CDC42BPB_Y1638] has what phosphorylation enrichment?
0.612

Form field: reported phosphorylation enrichment of MFRAGYDTKQE [F10_Y407_C404R]
0.761

Field request: phosphorylation enrichment | item: IGSQRYQLGVR [RB1_Y446_K447Q]
0.534

If you can, please state the reported phosphorylation enrichment value of PPAPRYHDSAV [LZTR1_Y119_H121D] .
0.877

Which phosphorylation enrichment is reported for this sequence? WKKEIYEESST [MOCS2_Y170]
1.17
